System: COLO 205 colon
Assay: NCI tumour cell line growth inhibition, 48 h
QUANTITY MEASURED: TGI

Answered examples (10):
molecule="NC(=O)/C(=N\\NC(=O)c1cc2ccccc2cc1O)C1C(=O)N(c2ccccc2)N=C1N (stereo not given)" measured_target="COLO 205 colon" quantity_measured=TGI observed_result="> 100 µM"
molecule="CCCCCCCC/C=C/CCCCCCCC(=O)N(O)C1CC(n2cc(C)c(=O)[nH]c2=O)OC1CO (stereo not given)" measured_target="COLO 205 colon" quantity_measured=TGI observed_result="16.7 µM"
molecule=C=C(C)[C@@H]1CC[C@]2(C(N)=O)CC[C@]3(C)[C@H](CC[C@@H]4[C@@]5(C)C/C(=C/c6cccnc6)C(=O)C(C)(C)[C@@H]5CC[C@]43C)[C@@H]12 measured_target="COLO 205 colon" quantity_measured=TGI observed_result="27.6 µM"
molecule="CS(=O)(=O)Nc1ccc2c(c1)N(S(C)(=O)=O)CC2COS(C)(=O)=O (stereo not given)" measured_target="COLO 205 colon" quantity_measured=TGI observed_result="> 100 µM"
molecule=O=C1c2ccccc2CC12CCC1(CC2)OCCO1 measured_target="COLO 205 colon" quantity_measured=TGI observed_result="> 100 µM"
molecule="N#CC(C(=O)C(N)=O)c1ccccc1Cl (stereo not given)" measured_target="COLO 205 colon" quantity_measured=TGI observed_result="> 100 µM"
molecule="CCOC(=O)C1C(c2ccc3c(c2)OCO3)c2c([nH][nH]c2=O)CC1(O)OCC (stereo not given)" measured_target="COLO 205 colon" quantity_measured=TGI observed_result="> 100 µM"
molecule="COc1cc2c(cc1OCCCCCN1CCN(CCCCCOc3cc4c(cc3OC)C(=O)C3CCC[C@H]3C=N4)CC1)N=C[C@@H]1CCCC1C2=O (stereo not given in full)" measured_target="COLO 205 colon" quantity_measured=TGI observed_result="11.3 µM"
molecule="CC(CO)CCC(O)C(C)(O)C1CCC2(O)C3=CC(=O)C4CC(O)C(O)CC4(C)C3CCC12C (stereo not given)" measured_target="COLO 205 colon" quantity_measured=TGI observed_result="> 100 µM"
molecule=O=C1C(c2ccccc2)=[N+]([O-])c2ccc(Cl)cc21 measured_target="COLO 205 colon" quantity_measured=TGI observed_result="28.9 µM"

Let's switch to this molecule now.
Notebook: "COc1ccc2c(c1OC)OC[C@@H](C1=CC(=O)C=C(O)C1=O)C2" , TGI read as 43.3 µM

====

Test system: HOP-92 NSCLC
Test: NCI tumour cell line growth inhibition, 48 h
Documented TGI across a set of compounds

compound=CCOC(=O)c1ccc(O)cc1 measured_target="HOP-92 NSCLC" quantity_measured=TGI observed_result="> 100 µM"
compound="CCC1c2[nH]c3ccccc3c2C[C@H]2C(=O)NC(Cc3c[nH]c4ccccc34)C(=O)N12 (some centres not stated)" measured_target="HOP-92 NSCLC" quantity_measured=TGI observed_result="74 µM"
compound=CC(=O)/C(=C\c1ccccc1)C(=O)Nc1ccccc1 measured_target="HOP-92 NSCLC" quantity_measured=TGI observed_result="> 100 µM"
compound=Cc1cc(S(=O)(=O)N/C(=C(\C#N)C(=O)c2ccccc2)[n+]2ccc(N(C)C)cc2)c([S-])cc1Cl measured_target="HOP-92 NSCLC" quantity_measured=TGI observed_result="0.994 µM"
compound=CNC(=O)c1ccc(C(=O)NCCCCCN(O)C(=O)CCC(=O)NCCCCCN(O)C(=O)CCC(=O)NCCCCCN(O)C(C)=O)c(O)c1O measured_target="HOP-92 NSCLC" quantity_measured=TGI observed_result="> 100 µM"
compound=O=C(Nc1ccccc1C(=O)N/N=C(\c1ccccc1)c1ccccn1)c1ccccc1 measured_target="HOP-92 NSCLC" quantity_measured=TGI observed_result="47.8 µM"

Now look at this entry.
Form: compound = COC(=O)c1ccc(C2SC(C)C(=O)N2NC(=O)C(O)c2ccccc2)cc1 (configuration not stated) ; TGI = > 100 µM

====

System: UO-31 renal
Test: NCI tumour cell line growth inhibition, 48 h
Threshold check on TGI: at or above 7 µM gives yes, strictly below gives no.

A selection of reference data follows.
compound="COc1ccc2c(c1)C(=O)C1(C2)[C@H](c2ccccc2)C2C(=O)c3cc(OC)ccc3C2[C@H]1c1ccccc1 (some centres undefined)" qualitative_label=yes
compound=C#CCNCCCN1C(=O)c2ccc3c4c(ccc(c24)C1=O)C(=O)N(CCCNCC#C)C3=O qualitative_label=no
compound=COc1cc2nccc(Oc3ccc(NC(=O)C4(C(=O)Nc5ccc(F)cc5)CC4)cc3)c2cc1OC(=O)c1ccc(N)cc1 qualitative_label=no

Is it the case that CN(C)CCNC(=O)C1COc2cc(-c3cc(=O)c4ccccc4o3)ccc2O1 (centres undefined) has TGI reaching or exceeding 7 µM? yes

====

Test system: OVCAR-3 ovarian
Test: NCI tumour cell line growth inhibition, 48 h
QUANTITY MEASURED: TGI

Worked examples, 4 molecules total:
molecule="COC(=O)C(=O)C(CC(=O)Nc1c(C)cccc1C)C(=O)OC (stereo not given)" observed_result="> 100 µM"
molecule=Cc1ncc([N+](=O)[O-])n1CCNC(=O)CCC(=O)NCCCn1ccnc1[N+](=O)[O-] observed_result="> 100 µM"
molecule=c1ccc2c(c1)N[C@@H]1c3[nH]c4ccccc4c3CC[C@H]21 observed_result="27.3 µM"
molecule="CCC(C)CN=C(N)c1ccc(N2CCN(c3ccc(C(N)=NCC(C)CC)cc3)CC2)cc1 (stereo not given)" observed_result="35.4 µM"

# context switch: different molecule, same TGI
Per the record, CCSC1=CC(Cc2ccc(OC)cc2)N(C(=O)OC)C1 (stereo not given) has TGI of > 100 µM

====

Entries and their TGI values follow.
System: KM12 colon
Experiment: NCI tumour cell line growth inhibition, 48 h

compound=CCOP(=O)(OCC)C(C)(C)OC(=O)NC(F)(F)F observed_result="> 100 µM"
compound=COc1ccc(/C=C2\C(=O)NC(=O)c3ccccc32)cc1OC observed_result="> 100 µM"
compound=O=Cc1cn(Cc2ccccc2)c2ccccc12 observed_result="> 100 µM"
compound=CC[N-]c1nnnn1CC.[Au+].c1ccc([PH+](c2ccccc2)c2ccccc2)cc1 observed_result="11.6 µM"

Param item: COc1cc(C2c3cc4c(cc3[C@@H](Nc3ccc(F)cc3)C3CO[C@@H](O)[C@H]23)OCO4)cc(OC)c1O (stereo not given in full) ; param system: KM12 colon; output TGI: > 25 µM

====

Test system: MDA-MB-435
Experiment: NCI tumour cell line growth inhibition, 48 h
QUANTITY MEASURED: TGI

compound=Cc1oc2c(cc(O)c3ccccc32)c2cccc1-2 measured_target=MDA-MB-435 quantity_measured=TGI observed_result="> 100 µM"
compound="COc1cc(Br)c(CC2C3=C(CCN2C(=O)C2CCC2)CC2(CC3)OCCO2)cc1O (stereo not given)" measured_target=MDA-MB-435 quantity_measured=TGI observed_result="64 µM"

The measured TGI associated with "COc1ccc(C2=Cc3nc2c(-c2ccccc2)c2ccc([nH]2)c(-c2ccccc2)c2nc(c(-c4ccccc4)c4ccc([nH]4)c3-c3ccccc3)C=C2)cc1" reads > 100 µM

Measured TGI, "O=C(CCC1CCCCC1)NCc1ccc(C(=O)O)cc1" : > 100 µM

Reported TGI for COc1ccc(C2NC(=O)c3cc4c(cc3N2)OCO4)cc1 (stereo not given) was 0.543 µM

====

Attribute: TGI
System: SK-MEL-5 melanoma
Assay: NCI tumour cell line growth inhibition, 48 h
Report the figure in µM without appending any unit label.

As a guide, the following entries are already answered.
compound=CC(C)NCCCNc1c2ccccc2nc2cccc([N+](=O)[O-])c12 quantity_measured=TGI unit_text=µM observed_result=0.0163
compound=Cn1cc(-c2csc(-c3c[nH]c4ccccc34)n2)c2cccnc21 quantity_measured=TGI unit_text=µM observed_result=11.7
compound=CCOc1ccccc1C(=O)/C=C/c1cc2ccccc2[nH]c1=O quantity_measured=TGI unit_text=µM observed_result=1.31
compound=COc1cc(-c2cc(-c3nc4ccc(F)cc4[nH]3)[nH]n2)cc(OC)c1OC quantity_measured=TGI unit_text=µM observed_result=2.8

Field TGI (entry "CC[C@@]1(C[C@H]2C[C@@]3(C(=O)OC)c4[nH]c5ccccc5c4CCN3C2=S)COC2(CCCCC2)O1" ) reads 39

response.value for CCCCCCC(O)(c1ccc(F)cc1)C(CN1CCOCC1)c1ccccc1 (stereo not given) (field: TGI) = 18.6

Form field TGI, entry CC1=CC(C)C(C)N(CC2=NCCN2)c2ccccc21 (stereo not given) : 36.4

====

# GI50 values compiled below
System: UACC-62 melanoma
Assay: NCI tumour cell line growth inhibition, 48 h

Answered cases to consult:
structure_smiles_string=CC[O-].CC[O-].CN(C)c1ccc([O-])cc1.CN(C)c1ccc([O-])cc1.[Ti+4] observed_result="> 100 µM"
structure_smiles_string=CCCCCCCC/C(=C\C1=C(C)C(=O)C(OC)=C(OC)C1=O)C(=O)O observed_result="33.8 µM"

Kindly review the next compound as well.
Reported GI50 ( "COc1ccc(CCc2nc3cc(-c4c(C)noc4C)ccc3n2CCN2CCOCC2)cc1" ) = 11.1 µM
